The values you see were collected from patent US20240117030A1.

- System Tested: human IL-13 (human, UniProt P35225 35-146)
- Sequence (P35225 35-146 limits assumed, form in doubt): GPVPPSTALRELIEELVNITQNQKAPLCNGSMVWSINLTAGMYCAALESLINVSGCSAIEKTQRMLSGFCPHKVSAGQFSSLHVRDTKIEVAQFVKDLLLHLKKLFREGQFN
- Assay Name: cell-based or functional assay
Measured Attribute: CD23 IC50 [pM] Ave. n = 2 (pM)
Record the value in pM, omitting the unit from your answer.

# Binder, CD23 IC50 [pM] Ave. n = 2 / pM
records = [
    ("IL13-0259 (antibody, IgG1, V domains shown, IgG1 effector-null/kappa IgG) VH: EVQLVESGGGLVQPGGSLRLSCAASGFTFSSYAMSWVRQAPGKGLEWVASISTGDTTYYPDSVKGRFTISRDNAKNSLYLQMNSLRAEDTAVYYCARNEGYYFGLTQWGRGTLVTVSS VL: DIQMTQSPSSLSASVGDRVTITCRASQSVDHFGWSLVHWYQQKPGKAPKLLIYRASNLESGVPSRFSGSGSGTDFTLTISSLQPEDFATYYCQQSNEDPWTFGGGTKVEIK", 7.4),
]

Notebook: IL13-0271 (antibody, IgG1, V domains shown, IgG1 effector-null/kappa IgG; also called IL13433-0271) VH: EVQLVESGGGLVQPGGSLRLSCAASGFTFSSYAMSWVRQAPGKGLEWVASISTGDTTYYPDSVKGRFTISRDNAKNSLYLQMNSLRAEDTAVYYCARNEGYYFGLTQWGRGTLVTVSS VL: DIQMTQSPSSLSASVGDRVTITCRASESVDHFGWSLVHWYQQKPGKAPKLLIYRADSLETGVPSRFSGSGSGTDFTLTISSLQPEDFATYYCQQSNEDPWTFGGGTKVEIK , CD23 IC50 [pM] Ave. n = 2 read as 5.9

Summary for this binder, IL13-0270 (antibody, V domains shown, IgG1 effector-null/kappa IgG; also called IL13433-0270) VH: EVQLVESGGGLVQPGGSLRLSCAASGFTFSSYAMSWVRQAPGKGLEWVASISTGDTTYYPDSVKGRFTISRDNAKNSLYLQMNSLRAEDTAVYYCARNEGYYFGLTLWGQGTLVTVSS VL: DIQMTQSPSSLSASVGDRVTITCRASESVDHFGWSLVHWYQQKPGKAPKLLIYRADSLETGVPSRFSGSGSGTDFTLTISSLQPEDFATYYCQQSNEDPWTFGGGTKVEIK : CD23 IC50 [pM] Ave. n = 2 is 9

Documented CD23 IC50 [pM] Ave. n = 2 of IL13-0001 (antibody, human IgG1, kappa, V domains shown, also called IL13433-0001; 1RVHC9-VLA4) VH: EVQLVESGGGLVQPGGSLRLSCAASGFTFSSYAMSWVRQAPGKGLEWVASISSGDTTYYPDSVKGRFTISRDNAKNSLYLQMNSLRAEDTAVYYCARNEGYYFGLTLWGQGTLVTVSS VL: DIQMTQSPSSLSASVGDRVTITCKASESVDHFGWSLVHWYQQKPGKAPKLLIYRASNLESGVPSRFSGSGSGTDFTLTISSLQPEDFATYYCQQSNEDPWTFGGGTKVEIKR : 6
